These entries and their values trace back to ChEMBL document CHEMBL1138297.

system: Yersinia pseudotuberculosis; experiment: Effect on T3S in Yersinia pseudotuberculosis 3 pIB29 assessed as inhibition of light emission at 0.5 uM by luciferase reporter gene assay
Use 10% as the dividing line for inhibition, with the line itself on the yes side and lower values as no.

>  <Structure Smiles>
O=C(Nc1ccc(SC(F)(F)F)cc1)c1c(O)c(Cl)cc(Cl)c1Cl

>  <Class Label>
yes

$$$$
>  <Structure Smiles>
O=C(Nc1ccc(SC(F)(F)F)cc1)c1cccc(Cl)c1O

>  <Class Label>
no

$$$$
>  <Structure Smiles>
CC(=O)Oc1ccc(I)cc1C(=O)Nc1ccc(Br)cc1

>  <Class Label>
yes

$$$$
>  <Structure Smiles>
O=C(Nc1ccc(Br)cc1)c1cc(I)ccc1O

>  <Class Label>
yes

$$$$
>  <Structure Smiles>
CC(=O)Oc1c(Cl)cccc1C(=O)Nc1ccc(Br)cc1

>  <Class Label>
no

$$$$

Exam item: Item "Cc1cc(NC(=O)c2cc(Cl)ccc2O)ccc1Cl" with inhibition of 10% or above?
Marked response: yes

Exam item: For this molecule, is measured inhibition 10% or higher? "CC(=O)Oc1c(I)cc(I)cc1C(=O)Nc1ccc(Br)cc1"
Marked response: yes

Exam item: Has "CC(=O)Oc1c(I)cc(I)cc1C(=O)Nc1ccc(F)cc1" a recorded inhibition greater than or equal to 10%?
Marked response: yes

Exam item: decide whether the reported inhibition for "CC(=O)Oc1ccc(Cl)cc1C(=O)Nc1ccc(Cl)c(C)c1" is at least 10%.
Marked response: yes

Exam item: Kindly determine if inhibition recorded for "O=C(Nc1ccc(SC(F)(F)F)cc1)c1cc(I)ccc1O" is above or exactly 10%.
Marked response: yes
